test system: S. epidermidis; assay: MIC testing by broth dilution, S. epidermidis plank; format: cell-based, Staphylococcus epidermidis; settings: broth dilution, Trypticase Soy, 24 h; read-out: MIC (μM) S. epidermidis Plank
List of MIC values.
measuredMetric: MIC

{"compound": "COc1cc([N+](=O)[O-])ccc1C(=O)Nc1ncc([N+](=O)[O-])s1 [VPC161093]", "assayedSystem": "S. epidermidis", "measuredMetric": "MIC", "valueReported": "12.3 µM"}
{"compound": "O=C(Cc1ccccc1)Nc1ncc([N+](=O)[O-])s1 [VPC16a1013]", "assayedSystem": "S. epidermidis", "measuredMetric": "MIC", "valueReported": "22.8 µM"}
{"compound": "Cl.N[C@H](C(=O)Nc1ncc([N+](=O)[O-])s1)c1ccccc1 [VPC16a1027]", "assayedSystem": "S. epidermidis", "measuredMetric": "MIC", "valueReported": "101.7 µM"}
{"compound": "O=C(Nc1ncc([N+](=O)[O-])s1)c1ccc(F)cc1C(F)(F)F [VPC161127]", "assayedSystem": "S. epidermidis", "measuredMetric": "MIC", "valueReported": "23.9 µM"}
{"compound": "O=C(Nc1ncc([N+](=O)[O-])s1)c1ccc(F)cc1F [VPC16b1009]", "assayedSystem": "S. epidermidis", "measuredMetric": "MIC", "valueReported": "42.1 µM"}
